target: Cholecystokinin receptor (Rattus norvegicus, UniProt P30551+P30553); test: Binding affinity towards cholecystokinin receptor by the displacement of [125I]CCK-33 in rat pancreatic tissue
QUANTITY_MEASURED: IC50 (µM)
Express it in µM; write the number only.

{"columns": ["COMPOUND", "TARGET", "QUANTITY_MEASURED", "MEASUREMENT_UNITS", "VALUE"],
 "data": [
  ["CNC1=Nc2ccccc2C(c2ccccc2NC)=N[C@@H]1Cc1c[nH]c2ccccc12", "Cholecystokinin receptor (Rattus norvegicus, UniProt P30551+P30553)", "IC50", "µM", 100],
  ["CNC1=Nc2ccc(Cl)cc2C(c2ccccc2)=[N+]([O-])C1 [CHLORDIAZEPOXIDE]", "Cholecystokinin receptor (Rattus norvegicus, UniProt P30551+P30553)", "IC50", "µM", 100],
  ["CNC1=Nc2ccccc2C(c2ccccc2F)=N[C@@H]1Cc1c[nH]c2ccccc12", "Cholecystokinin receptor (Rattus norvegicus, UniProt P30551+P30553)", "IC50", "µM", 4.4],
  ["N#CNC1=Nc2ccccc2C(c2ccccc2F)=N[C@@H]1Cc1c[nH]c2ccccc12", "Cholecystokinin receptor (Rattus norvegicus, UniProt P30551+P30553)", "IC50", "µM", 2],
  ["NC1=Nc2ccccc2C(c2ccccc2F)=N[C@@H]1Cc1c[nH]c2ccccc12", "Cholecystokinin receptor (Rattus norvegicus, UniProt P30551+P30553)", "IC50", "µM", 1.7],
  ["O=C(O)CNC1=Nc2ccccc2C(c2ccccc2F)=N[C@@H]1Cc1c[nH]c2ccccc12", "Cholecystokinin receptor (Rattus norvegicus, UniProt P30551+P30553)", "IC50", "µM", 3.6]
]}

Q) Look up IC50 for this compound: CCCNC1=Nc2ccccc2C(c2ccccc2F)=N[C@@H]1Cc1c[nH]c2ccccc12
A) 2.7

Q) Look up IC50 for this compound: Fc1ccccc1C1=N[C@H](Cc2c[nH]c3ccccc23)C(Nc2ccccc2)=Nc2ccccc21
A) 34

Q) Look up IC50 for this compound: CCOC(=O)CNC1=Nc2ccccc2C(c2ccccc2F)=N[C@@H]1Cc1c[nH]c2ccccc12
A) 23
